PBM binding z-score values, listed per item
tested on: LXRa:RXRa (NR concentration 270 nM, RXRa partner concentration 90 nM); test: PBM binding z-score (relative to random genomic background probes); higher = stronger binding; sequences stand for … in GC…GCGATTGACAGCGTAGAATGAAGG

Illustrative cases are given below, each with its answer.
Query Sequence	Observed Result
AGAATGGGGTTATTAAGATCAGGGAATTGCGGTC	2.77
ATATGGAGGTTAGGGTCATTCAGAAAGTAGGGAA	4.25

Kindly note the recorded PBM binding z-score for "CGAACTGGGTCACCAGGACAGTGAAGAGGTTGGA" , which is 1.63

Kindly note the recorded PBM binding z-score for "ATATGTAGGTTACATGCGGGTCATTCAGGCTATG" , which is 4.55

Kindly note the recorded PBM binding z-score for "CTATGTAGGTTATGGGGGTCATTCAGTTTGAAAG" , which is 5.53

Kindly note the recorded PBM binding z-score for "CGAACTAGGTCCTTGACAGGACAGTGAATAGTAA" , which is -0.522

Kindly note the recorded PBM binding z-score for "AGAACGAGGGCAATGAGTTCATAGCACGGGTGGC" , which is 2.26

Kindly note the recorded PBM binding z-score for "CGTCTAAGGTCAGCAGGTCAGTGAAAGCGACGTG" , which is 4.48

Kindly note the recorded PBM binding z-score for "CGAACTAGGTCAAAGGACAGTTAAAGGCGACGTA" , which is 2.69

Kindly note the recorded PBM binding z-score for "ATATGTAGGTTACATCCGAGTCATTCAGGCTATG" , which is 1.95

Kindly note the recorded PBM binding z-score for "CGAACTAGGTCACAGGACAGTGAAAGGCGACGTA" , which is 2.67

Kindly note the recorded PBM binding z-score for "CGAACTAGGTCGAAGGACAGTGAAAGGCGACGTA" , which is -0.21

Attribution: the supplement of paper PMC6555819
